- measuredTarget: PSMD14
- assaySummary: pooled miR-30 sensor sort-seq; sequence = guide strand
- conditionDescription: shRNA
Provide the recorded sensor-assay potency score (higher = more potent) for the entries that follow.
Give bare numbers.

Worked cases, sensor-assay potency score (higher = more potent) given:
TTTGTCTTGGTTCATGTCCTAA: -1.03
TAACATTTTTAACAGTGCCAGG: -1.43
TAGTCCATGAATTAATGCCTGG: -1.08
AAATTTAGCAACATCTTCTGTT: 0.377

The record that follows has no sensor-assay potency score (higher = more potent) shown yet.
Task: Provide measured sensor-assay potency score (higher = more potent) value, entry: "TTAACATTTTTAACAGTGCCAG"
Output: -1.04

###

- measuredTarget: SCN2B
- assaySummary: pooled miR-30 sensor sort-seq; sequence = guide strand
- conditionDescription: shRNA
The label depends only on sensor-assay potency score (higher = more potent): Yes if it is at least -0.9, No if it is smaller.

Below, 4 sequences whose answers are already recorded.
TTGTGGTTCACTGTGTAGCAGG: Yes
ATTGTCTGTCTGCTTAACCTGA: No
TTAATTAGGAGGAAGAGACAGA: Yes
TTCCCTGAGAACTCCACGCGGT: Yes

Task: Threshold query (sensor-assay potency score (higher = more potent) >= -0.9) on "TATAGCACACACAACCAAGAAA"
Output: No

Task: Tell me whether sensor-assay potency score (higher = more potent) is at least -0.9 here: "TTGCAAAAGAAACTCAGTCTGC"
Output: Yes

Task: sensor-assay potency score (higher = more potent) >= -0.9 for "TTGTCTGTCTGCTTAACCTGAC" ?
Output: Yes

Task: Textbook exercise: given the entry "TTTTTTTCTCCTCACACACTTG" , state whether its sensor-assay potency score (higher = more potent) is greater than or equal to -0.9.
Output: No

###

- measuredTarget: MYO1F
- assaySummary: pooled miR-30 sensor sort-seq; sequence = guide strand
- conditionDescription: shRNA
For each entry below, report its sensor-assay potency score (higher = more potent) value.
Give bare numbers.

A selection of reference data follows.
TCATTTTGCATGACCACGCGGG: -0.396
TTCTGGAAGATCTCGAAGCCGT: -0.863
TTGTTGTTGCGCACAGTCTTGG: -0.625
TAGTGTGTCGCTGAAGGTGAGG: -0.748
TTGGCTTGTTTCTTGATCTTGG: 0.371
TTGGCTGCCACTGTCTTCCCAG: -0.239

Switching to the query record.
Task: Check the records and state sensor-assay potency score (higher = more potent) for "TAGCACTCAGAGTCTCACCAAA"
Output: -0.917

###

- measuredTarget: WDR7
- assaySummary: pooled miR-30 sensor sort-seq; sequence = guide strand
- conditionDescription: shRNA
measuredQuantity: sensor-assay potency score (higher = more potent)

Worked examples, 2 sequences total:
TTAGGTTTGTCTTTATTGCTTG: 0.201
TTTAGAATCTCAACTGCTGTTA: 0.0218

Now examine the next entry.
Task: # return sensor-assay potency score (higher = more potent) of "TAAGTGAATCAACAGCAGCAGG" (system: WDR7)
Output: -1.52

###

- measuredTarget: HOXD12
- assaySummary: pooled miR-30 sensor sort-seq; sequence = guide strand
- conditionDescription: shRNA
Kindly return fulfilled if reported sensor-assay potency score (higher = more potent) is no lower than -0.8; return not fulfilled if it is lower.

TAGGGTTTCCGCTTCTTGCGGG: fulfilled
ATTTTGACTTGCTGGTCGCTGA: not fulfilled
TTGACTTGCTGGTCGCTGAGGT: fulfilled
TATTGGACAATTCCTTGCGTTT: not fulfilled
TTAGCCTGCTCTTCGGGTCCGT: fulfilled
TTGGTGTCGTCCTTGAAGCCAG: not fulfilled

Task: Textbook exercise: given the entry "TTTGACTTGCTGGTCGCTGAGG" , state whether its sensor-assay potency score (higher = more potent) is greater than or equal to -0.8.
Output: not fulfilled
